Tested on: SCC-9 HNC cell line
EXPERIMENT_SUMMARY: Erlotinib sensitivity assay (CellTitre 96 cell viability)
APPLIED_CONDITIONS: Homo sapiens, SCC-9, 72 h, read-out: Erlotinib sensitivity (EC50)
PROPERTY_NAME: EC50 (nM)
Give the number; nM is assumed, so skip it.

Qu. Returns the measured EC50 for the input molecule. Input: `C#Cc1cccc(Nc2ncnc3cc(OCCOC)c(OCCOC)cc23)c1`
Ans. 2150

----------
System: HN5 HNC cell line
EXPERIMENT_SUMMARY: Erlotinib sensitivity assay (CellTitre 96 cell viability)
APPLIED_CONDITIONS: Homo sapiens, HN5, 72 h, read-out: Erlotinib sensitivity (EC50)
PROPERTY_NAME: pEC50
Entry type: numeric. Quantity: pEC50, the -log10 of concentration in molar units.

Qu. Returns the measured pEC50 for the input compound. Input: C#Cc1cccc(Nc2ncnc3cc(OCCOC)c(OCCOC)cc23)c1 [erlotinib]
Ans. 6.19

----------
Test system: FaDu HNC cell line
EXPERIMENT_SUMMARY: Erlotinib sensitivity assay (CellTitre 96 cell viability)
APPLIED_CONDITIONS: Homo sapiens, 72 h, read-out: Erlotinib sensitivity (EC50)
PROPERTY_NAME: pEC50
Entry type: numeric. Quantity: pEC50, the -log10 of concentration in molar units.

Qu. API: value(readout= pEC50, system= FaDu HNC cell line, query= `C#Cc1cccc(Nc2ncnc3cc(OCCOC)c(OCCOC)cc23)c1` )
Ans. 5.08
